Target: KRAS G12D (Homo sapiens (Human), UniProt P01116+P62937, G12D)
Sequence (P01116-2 other isoform, or with tags, fused parts or gaps G12D): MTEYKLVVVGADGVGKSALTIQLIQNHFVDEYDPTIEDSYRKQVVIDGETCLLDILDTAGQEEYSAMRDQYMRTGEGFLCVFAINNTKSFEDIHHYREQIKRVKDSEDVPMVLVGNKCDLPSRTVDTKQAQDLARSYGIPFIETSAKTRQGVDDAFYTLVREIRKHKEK
Sequence (P62937 whole entry): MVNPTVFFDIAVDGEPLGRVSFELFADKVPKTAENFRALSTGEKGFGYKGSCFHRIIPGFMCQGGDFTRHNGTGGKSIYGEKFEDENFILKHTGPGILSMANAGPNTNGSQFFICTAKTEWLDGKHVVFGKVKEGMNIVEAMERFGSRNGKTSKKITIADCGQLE
Assay: Ras-Raf (BRAF RBD) disruption / FRET / MOA assay, KRAS G12D
Type: biochemical
Conditions: Ras-Raf disruption/FRET/MOA assay; class symbols; read-out: KRAS G12D FRET data IC50
Field: IC50. Provide a value for each of the compounds that follow.

[Q] Report IC50 for C=CC(=O)N1CC[C@H](C(=O)N(C)[C@H](C(=O)N[C@H]2CC3=NN=C(O3)c3ccc4c(c3)c(c(-c3cccnc3[C@H](C)OC)n4CC)CC(C)(C)COC(=O)[C@@H]3CCCN(N3)C2=O)C(C)C)C1 (atropisomer, axis not shown) [Example A447] please.
[A] > 10000 nM

[Q] Moving on to CCn1c(-c2cccnc2[C@H](C)OC)c2c3cc(ccc31)-c1cc(cc(C(F)F)c1)C[C@H](NC(=O)[C@H](C1CCCC1)N(C)C(=O)[C@H]1CCN(C(=O)C#CC(C)(C)N3CCC3)C1)C(=O)N1CCC[C@H](N1)C(=O)OCC(C)(C)C2 (atropisomer, axis not shown) [Example A456]
[A] 1000 to 10000 nM

[Q] Moving on to CCn1c(-c2cccnc2[C@H](C)OC)c2c3cc(ccc31)-c1cccc(c1)C[C@H](NC(=O)CCOC1CN(C(=O)C#CC(C)(C)N(C)C)C1)C(=O)N1CCC[C@H](N1)C(=O)OCC(C)(C)C2 (atropisomer, axis not shown) [Example A448]
[A] > 10000 nM

[Q] Moving on to CCn1c(-c2cccnc2COC)c2c3cc(ccc31)-c1cc(C)cc(c1)C[C@H](NC(=O)[C@H](C(C)C)N(C)C(=O)[C@H]1CCN(C(=O)C#CCN(C)C)C1)C(=O)N1CCC[C@H](N1)C(=O)OCC(C)(C)C2 [Example A157]
[A] 1000 to 10000 nM

[Q] Moving on to CCn1c(-c2cccnc2[C@H](C)OC)c2c3cc(ccc31)-c1csc(n1)C[C@H](NC(=O)[C@H](C(C)C)N(C)C(=O)N1CC(N(C)C(=O)/C=C/CN(C)C)C1)C(=O)N1CCC[C@H](N1)C(=O)OCC(C)(C)C2 (atropisomer, axis not shown) [Example A710]
[A] 100 to 1000 nM

[Q] Moving on to C=CC(=O)N1C[C@@H](C)N(C(=O)N(C)[C@H](C(=O)N[C@H]2Cc3nc(cs3)-c3ccc4c(c3)c(c(-c3cccnc3[C@H](C)OC)n4CC)CC(C)(C)COC(=O)[C@@H]3CCCN(N3)C2=O)C(C)C)C[C@@H]1C (atropisomer, axis not shown) [Example A418]
[A] 100 to 1000 nM

[Q] Moving on to C=CC(=O)N1C2CC1CN(C(=O)N(C)[C@H](C(=O)N[C@H]1Cc3nc(cs3)-c3ccc4c(c3)c(c(-c3cccnc3[C@H](C)OC)n4CC)CC(C)(C)COC(=O)[C@@H]3CCCN(N3)C1=O)C(C)C)C2 [Example A408]
[A] 1000 to 10000 nM

[Q] Moving on to CCn1c(-c2cccnc2[C@H](C)OC)c2c3cc(ccc31)-c1cccc(c1)C[C@H](NC(=O)[C@H](C(C)C)N(C)C(=O)[C@H]1CCN(C(=O)C#CC(C)(C)N(C)C)C1)C(=O)N1CCC[C@H](N1)C(=O)OCC(C)(C)C2 (atropisomer, axis not shown) [Example A339]
[A] > 10000 nM
